Each recorded value in this set is attributed to a melting point compilation (Tetko et al.; mined from patent text by program, amines drawn as free bases though some values may be those of a salt).

measure name: melting point

Previously resolved entries follow.
• Cc1ccc2c(c1)C=C(C(=O)O)C(C(F)(F)F)S2 (stereo not given) = 181 to 184 °C
• CCSc1cc(C)nc(SCC)c1NC(=O)CCCCCCCSc1nc2ccccc2[nH]1 = 166 to 168 °C
• Cc1nc2cnccc2n1-c1ccc(Cn2c(=O)oc3ccccc32)cc1 = 84 to 87 °C
• COc1cc(S(C)(=O)=O)ccc1-c1nc2cc3c(cc2[nH]1)N(C(C)=O)CC3(C)C = 223 to 225 °C
• N#Cc1ncccc1-c1nc2cccnc2o1 = 129 to 133 °C
• Cc1c(Cl)cccc1Nc1ncccc1[N+](=O)[O-] = 134 to 135 °C
• CCc1cc(C(C)=O)c(O)c(C(=O)Nc2nnn[nH]2)c1 = 257 to 258 °C
• COc1cc2c(=O)n(CCN(C)C)c3c(cnc4cccc(N)c43)c2cc1OC = 239 to 241 °C

Quick one: give measured melting point for NC(=O)Cc1ccc(-c2ccc(C(CC3CCOCC3)c3ccc(S(=O)(=O)C4CC4)cc3)[nH]2)nc1 (stereo not given)
151 to 153 °C

Give melting point for the following molecule: CC(=O)OC(C)c1cc2c(s1)C(=O)c1ccsc1C2=O (stereo not given)
174 to 176 °C
